System: M. mycetomatis genome strain MM55
test_details: CLSI M38-A2 based in vitro susceptibility screening (XTT or resazurin), growth at fixed concentration
Format: cell-based, Madurella mycetomatis
reported_conditions: Madurella mycetomatis, 100 uM, mean; read-out: Percentage survival at 100um, 100 uM mean
reported_property: activity at 100 µM (%)
Return type: number; implicit unit %.

Some compounds with recorded activity at 100 µM:
                                smiles_repr  assay_result
0  O=C(CCc1ccc2c(c1)OCO2)NCc1ccc(-c2ccccc2F)cc1          77.4
1    CN(Cc1ccc(C(C)(C)C)cc1)Cc1cccc2ccccc12          61.2
2               COC(=O)Nc1nc2c(C)cccc2[nH]1          15.6

Lab request: please report activity at 100 µM under test system M. mycetomatis genome strain MM55 for CONC(=N)c1ccc(-c2ccc(-c3ccc(C(=N)NOC)cc3)o2)cc1
95.8

Now the compound CC(C)(C)c1ccc(C(=O)NC(=O)N2CCCc3ccccc32)cc1
81.3

Now the compound Fc1ccc2c(/C=C/c3cccnc3)c[nH]c2c1
58.2
